Test: Antiproliferative activity against v-Src transformed mouse NIH 3T3 fibroblast after 72 hrs
Format: functional, cell-based
Settings: NIH3T3, 72 h
# IC50 values compiled below
Numbers only; they are read as µM.

Some solved cases for reference:
>>> valuemeasured("C[C@@H]1N=C(c2ccccc2)c2ccccc2N(Cc2ccc(O)cc2)C1=O")
38.6
>>> valuemeasured("CN1C(=O)CN=C(c2ccc(Cl)cc2)c2cc(Cl)ccc21")
31.9
>>> valuemeasured("C[C@@H]1N=C(c2ccccc2)c2ccccc2N(Cc2ccc(OP(=O)(O)O)cc2)C1=O")
36.6

Value of IC50 reported for the compound C[C@@H]1N=C(c2ccccc2)c2ccccc2N(Cc2ccc(OP(=O)(O)OCc3ccccc3)cc2)C1=O is 49.5
